# Study target: UniProt Q9JJX6
# Sequence (Q9JJX6 whole entry): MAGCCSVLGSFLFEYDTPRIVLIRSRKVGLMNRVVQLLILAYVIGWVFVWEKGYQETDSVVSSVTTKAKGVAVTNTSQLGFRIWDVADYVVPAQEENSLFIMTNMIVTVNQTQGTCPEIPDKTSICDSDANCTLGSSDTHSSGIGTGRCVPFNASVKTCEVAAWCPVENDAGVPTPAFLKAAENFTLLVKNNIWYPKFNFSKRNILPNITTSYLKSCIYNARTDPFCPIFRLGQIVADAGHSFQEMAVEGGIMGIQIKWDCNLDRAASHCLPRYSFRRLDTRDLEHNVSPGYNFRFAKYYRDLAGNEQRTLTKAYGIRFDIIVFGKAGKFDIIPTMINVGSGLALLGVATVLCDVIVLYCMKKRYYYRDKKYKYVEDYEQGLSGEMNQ
# Protocol description: Assay B: mouse P2X4 receptor cell line, Fluo8 fluorescence FLIPR (agonist Bz-ATP at EC50)
# Conditions used: HEK mouse P2X4 cell line, agonist Bz-ATP at EC50, average
Observable: pIC50
One number for each entry, as −log10 of the molar value.

Reference set, count: 5
NS(=O)(=O)c1cc(NC(=O)Cc2cc(F)ccc2Cl)ccc1OCC1CCOCC1 [Example 163]    5.46
NS(=O)(=O)c1cc(NC(=O)Cc2cc(F)ccc2Cl)ccc1Oc1cccc(Cl)c1 [Example 099]    6.09
NS(=O)(=O)c1cc(NC(=O)Cc2ccccc2Cl)ccc1OCc1ccccc1 [Example 141]    5.95
Cc1cc(NC(=O)Cc2ccccc2Cl)cc(S(N)(=O)=O)c1Oc1cccc(Cl)c1 [Example 270]    5.91
N#Cc1cccc(Oc2ccc(NC(=O)Cc3ccccc3Cl)cc2S(N)(=O)=O)c1 [Example 015]    6.83

Provide pIC50 values for the following items, in order.
1. CC(C(=O)Nc1ccc(Oc2cccc(Cl)c2)c(S(N)(=O)=O)c1)c1c(F)cccc1Cl (centres unmarked) [Example 258]
2. NS(=O)(=O)c1cc(NC(=O)Cc2ccccc2Cl)ccc1OC1CCS(=O)(=O)C1 (centres unmarked) [Example 232]
3. NS(=O)(=O)c1cc(NC(=O)Cc2c(Cl)cccc2Cl)ccc1Oc1cccc(Cl)c1 [Example 104]
4. COC(=O)c1ccc(Oc2ccc(NC(=O)Cc3ccccc3Cl)cc2S(N)(=O)=O)cc1 [Example 273]
5. N#Cc1ccc(COc2ccc(NC(=O)Cc3ccccc3Cl)cc2S(N)(=O)=O)cc1 [Example 138]

A)
6.59
5.48
6.22
6.83
5.03

Lab book: pIC50 of NS(=O)(=O)c1cc(NC(=O)Cc2ccccc2Cl)ccc1Oc1ccc(F)cc1 [Example 012] noted as 5.91

* * *

# Study target: P2X4 (Homo sapiens, UniProt Q99571)
# Sequence (Q99571 whole entry): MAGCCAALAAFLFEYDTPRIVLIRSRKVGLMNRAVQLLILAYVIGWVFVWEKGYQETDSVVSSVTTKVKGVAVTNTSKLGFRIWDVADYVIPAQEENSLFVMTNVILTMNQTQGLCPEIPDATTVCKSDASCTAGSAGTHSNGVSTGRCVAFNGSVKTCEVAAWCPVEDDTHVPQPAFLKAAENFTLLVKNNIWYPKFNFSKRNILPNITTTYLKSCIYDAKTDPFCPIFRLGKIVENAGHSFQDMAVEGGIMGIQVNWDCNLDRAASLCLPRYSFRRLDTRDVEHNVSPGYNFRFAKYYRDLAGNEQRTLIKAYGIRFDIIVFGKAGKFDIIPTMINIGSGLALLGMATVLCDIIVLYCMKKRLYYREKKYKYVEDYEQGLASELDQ
# Protocol description: Assay B: human P2X4 receptor cell line, mitochondrial photina luminescence (agonist Bz-ATP at EC50)
# Type: cell-based
# Set-up: host or cells: HEK 293 (recombinant, constitutively expressing; with mitochondrial photina in Assay B)
# Conditions used: HEK human P2X4 cell line, photina luminescence, agonist Bz-ATP at EC50, average
Observable: log10 IC50 (log10 of the value in nM)
Heads up: the numbers are on a log10 scale; they represent IC50 in nM.

NS(=O)(=O)c1cc(NC(=O)Cc2ccccc2Cl)ccc1Oc1ccc(N2CCOC2=O)cc1    2.34

Provide log10 IC50 values for the following items, in order.
1. NS(=O)(=O)c1cc(NC(=O)Cc2ccccc2Cl)ccc1OC1COC1
2. NS(=O)(=O)c1cc(NC(=O)Cc2cnc(Cl)cc2Cl)ccc1Oc1cccc(Cl)c1
3. N#Cc1ccc(CC(=O)Nc2ccc(Oc3cccc(Cl)c3)c(S(N)(=O)=O)c2)cc1
4. NS(=O)(=O)c1cc(NC(=O)Cc2ccccc2Cl)ccc1Oc1ccc(N2CCCCC2=O)cc1
5. CC(C)c1ncc(Oc2ccc(NC(=O)Cc3ccccc3Cl)cc2S(N)(=O)=O)cn1
6. NS(=O)(=O)c1cc(NC(=O)Cc2ccccc2Cl)ccc1OCc1cccnc1

A)
3.53
2.44
2.79
4.18
3.20
2.07

Lab book: log10 IC50 of `NS(=O)(=O)c1cc(NC(=O)Cc2ccccc2Cl)ccc1Oc1cccc(N2CCOCC2)c1` noted as 1.91
